Data origin, for the record: BindingDB's records for doi:10.1016/j.chembiol.2017.02.003

target: Caspase-1 (Homo sapiens); experiment: Caspase Catalytic Activity Assay; settings: pH 7.4
Sequence (P29466 120-297 limits assumed): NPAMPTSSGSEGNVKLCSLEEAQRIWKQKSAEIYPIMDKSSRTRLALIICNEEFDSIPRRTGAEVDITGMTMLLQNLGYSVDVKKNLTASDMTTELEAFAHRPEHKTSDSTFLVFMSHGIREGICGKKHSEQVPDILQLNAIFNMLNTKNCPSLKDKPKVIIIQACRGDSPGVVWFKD
Sequence (P29466 317-404 limits assumed): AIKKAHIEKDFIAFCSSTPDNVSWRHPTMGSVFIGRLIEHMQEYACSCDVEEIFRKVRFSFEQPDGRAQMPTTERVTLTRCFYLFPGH
Listing of entries alongside the reported IC50.
Please give a number only; it is taken to be in µM.

O=C(c1ccccc1)c1ccc2n1CCC2C(=O)O (stereo not given) :: 18
CC(C(=O)O)c1ccc(N2Cc3ccccc3C2=O)cc1 (stereo not given) :: 3.6

Any idea what its IC50 is? The molecule is CC(C(=O)O)c1ccc(C(=O)c2ccccc2)s1 (stereo not given) 1.6

====

target: Caspase-5 (Homo sapiens, UniProt P51878)
Sequence (P51878 137-327 limits assumed): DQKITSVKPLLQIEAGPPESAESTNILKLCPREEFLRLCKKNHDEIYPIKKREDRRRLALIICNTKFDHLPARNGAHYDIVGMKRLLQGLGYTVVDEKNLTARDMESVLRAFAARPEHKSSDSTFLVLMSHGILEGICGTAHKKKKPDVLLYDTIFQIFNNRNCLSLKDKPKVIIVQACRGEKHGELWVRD
Sequence (P51878 347-434 limits assumed): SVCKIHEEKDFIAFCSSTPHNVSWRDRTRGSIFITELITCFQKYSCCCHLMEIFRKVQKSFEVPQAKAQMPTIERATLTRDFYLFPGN
Value Kind: IC50 (nM)
Field format: number, assumed nM, no unit text.

Fill in the blank: the reported IC50 of `O=C(O)CCC(=O)c1ccc(-c2ccccc2)cc1` is ____. 870
